Where do the numbers come from? From paper PMC2248166.

# target: H-2 D^b (Mus musculus)
# Sequence (P01887 21-119): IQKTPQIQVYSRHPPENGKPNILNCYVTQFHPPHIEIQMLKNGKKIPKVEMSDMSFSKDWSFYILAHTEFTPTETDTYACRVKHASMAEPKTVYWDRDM
# Sequence (P01899 25-362): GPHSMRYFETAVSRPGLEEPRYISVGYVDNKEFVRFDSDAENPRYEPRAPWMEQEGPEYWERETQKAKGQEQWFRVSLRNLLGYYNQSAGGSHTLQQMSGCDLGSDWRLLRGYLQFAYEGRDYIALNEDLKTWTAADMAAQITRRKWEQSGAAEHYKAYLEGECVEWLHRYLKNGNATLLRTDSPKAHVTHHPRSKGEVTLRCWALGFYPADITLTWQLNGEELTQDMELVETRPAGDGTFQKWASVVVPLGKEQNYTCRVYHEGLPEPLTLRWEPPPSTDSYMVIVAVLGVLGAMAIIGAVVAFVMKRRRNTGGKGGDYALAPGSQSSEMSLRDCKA
# Assay type: binding
The threshold is 0.6. Values of Normalized average relative binding affinity(ARB) beneath it are tagged Y; values meeting or exceeding it are tagged N.

- polymer sequence: "XXXXXXHXX [3064.0127]"
  assigned class: "Y"
- polymer sequence: "XXXXXTXXX [3064.0117]"
  assigned class: "Y"
- polymer sequence: "XXXXXXSXX [3064.0136]"
  assigned class: "Y"
- polymer sequence: "XXXXSXXXX [3064.0096]"
  assigned class: "Y"
- polymer sequence: "XXXXXXXPX [3064.0153]"
  assigned class: "N"
- polymer sequence: "XXXXXMXXX [3064.0111]"
  assigned class: "Y"
- polymer sequence: "XXXXXCXXX [3064.0102]"
  assigned class: "N"
